I'd be grateful if you could share measured Ratio IC50 for these entries.
- Species: Homo sapiens
- Assay Info: Selectivity ratio of IC50 for human HDAC1 to IC50 for human HDAC6
Just the number.

input: State the recorded Ratio IC50 for this entry: "O=C(CS)NCCCCCn1ccc2cc(Cl)c(Cl)cc21"
output: 657

input: Could you share which Ratio IC50 value was measured for "O=C(CS)NCCCCCNc1c(Cl)cc(Cl)c2cccnc12" ?
output: 444

input: Requested field: Ratio IC50. Item: "O=C(CS)NCCCCCCn1ccc2cc(F)c(Cl)cc21"
output: 450

input: Ratio IC50 lookup needed for "CC(C)c1cn(CCCCCCNC(=O)CS)c2cc(Cl)c(Cl)cc12" , thanks.
output: 18

---

- Measured On: Histone deacetylase 1 (Homo sapiens)
- Sequence (Q13547 whole entry): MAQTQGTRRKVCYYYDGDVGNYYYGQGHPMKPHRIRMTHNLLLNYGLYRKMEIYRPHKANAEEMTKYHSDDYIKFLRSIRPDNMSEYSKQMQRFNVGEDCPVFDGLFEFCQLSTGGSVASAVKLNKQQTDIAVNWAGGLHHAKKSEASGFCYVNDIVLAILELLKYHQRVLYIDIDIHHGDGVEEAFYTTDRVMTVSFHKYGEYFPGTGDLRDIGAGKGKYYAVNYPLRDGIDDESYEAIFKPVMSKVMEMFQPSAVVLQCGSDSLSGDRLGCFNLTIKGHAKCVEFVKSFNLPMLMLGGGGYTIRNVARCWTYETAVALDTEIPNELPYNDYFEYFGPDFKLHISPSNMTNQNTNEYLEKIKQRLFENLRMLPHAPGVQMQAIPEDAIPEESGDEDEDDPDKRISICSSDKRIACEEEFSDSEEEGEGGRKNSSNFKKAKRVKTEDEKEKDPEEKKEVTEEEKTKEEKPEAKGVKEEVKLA
Property Name: IC50 (µM)
Express it in µM; write the number only.

input: Query (molecule): "O=C(CS)NCCCCNc1c(Cl)cc(Cl)c2cccnc12" ; field requested: IC50
output: 6.88

---

Can you tell me half-life for the items I'm about to list?
- Assay Info: Half life in human liver microsomes in presence of NADPH
- Type: ADME, microsome
Report the value in min with no unit label.

input: Given the entry "O=C(CS)NCCCCNc1c(Cl)cc(Cl)c2cccnc12" , report its measured half-life.
output: 32.2

input: // lookup half-life for "O=C(CSSCC(=O)NCCCCCn1ccc2cc(Cl)c(Cl)cc21)NCCCCCn1ccc2cc(Cl)c(Cl)cc21"
output: 49.5

input: Param item = "CC(C)c1cn(CCCCCCNC(=O)CS)c2cc(Cl)c(Cl)cc12" ; retrieve measured half-life.
output: 48.8

input: Entry under review: "O=C(CS)NCCCCCn1ccc2cc(Cl)c(Cl)cc21" . Reported half-life?
output: 35.2

input: Entry under review: "O=C(CS)NCCCCCNc1c(Cl)cc(Cl)c2cccnc12" . Reported half-life?
output: 42.5

input: Using the record for "O=C(CSSCC(=O)NCCCCNc1c(Cl)cc(Cl)c2cccnc12)NCCCCNc1c(Cl)cc(Cl)c2cccnc12" , report its half-life.
output: 20.7

---

Exercise: state measured IC50 for each of the molecules provided.
- Measured On: Protein deacetylase HDAC6 (Homo sapiens)
- Sequence (Q9UBN7 whole entry): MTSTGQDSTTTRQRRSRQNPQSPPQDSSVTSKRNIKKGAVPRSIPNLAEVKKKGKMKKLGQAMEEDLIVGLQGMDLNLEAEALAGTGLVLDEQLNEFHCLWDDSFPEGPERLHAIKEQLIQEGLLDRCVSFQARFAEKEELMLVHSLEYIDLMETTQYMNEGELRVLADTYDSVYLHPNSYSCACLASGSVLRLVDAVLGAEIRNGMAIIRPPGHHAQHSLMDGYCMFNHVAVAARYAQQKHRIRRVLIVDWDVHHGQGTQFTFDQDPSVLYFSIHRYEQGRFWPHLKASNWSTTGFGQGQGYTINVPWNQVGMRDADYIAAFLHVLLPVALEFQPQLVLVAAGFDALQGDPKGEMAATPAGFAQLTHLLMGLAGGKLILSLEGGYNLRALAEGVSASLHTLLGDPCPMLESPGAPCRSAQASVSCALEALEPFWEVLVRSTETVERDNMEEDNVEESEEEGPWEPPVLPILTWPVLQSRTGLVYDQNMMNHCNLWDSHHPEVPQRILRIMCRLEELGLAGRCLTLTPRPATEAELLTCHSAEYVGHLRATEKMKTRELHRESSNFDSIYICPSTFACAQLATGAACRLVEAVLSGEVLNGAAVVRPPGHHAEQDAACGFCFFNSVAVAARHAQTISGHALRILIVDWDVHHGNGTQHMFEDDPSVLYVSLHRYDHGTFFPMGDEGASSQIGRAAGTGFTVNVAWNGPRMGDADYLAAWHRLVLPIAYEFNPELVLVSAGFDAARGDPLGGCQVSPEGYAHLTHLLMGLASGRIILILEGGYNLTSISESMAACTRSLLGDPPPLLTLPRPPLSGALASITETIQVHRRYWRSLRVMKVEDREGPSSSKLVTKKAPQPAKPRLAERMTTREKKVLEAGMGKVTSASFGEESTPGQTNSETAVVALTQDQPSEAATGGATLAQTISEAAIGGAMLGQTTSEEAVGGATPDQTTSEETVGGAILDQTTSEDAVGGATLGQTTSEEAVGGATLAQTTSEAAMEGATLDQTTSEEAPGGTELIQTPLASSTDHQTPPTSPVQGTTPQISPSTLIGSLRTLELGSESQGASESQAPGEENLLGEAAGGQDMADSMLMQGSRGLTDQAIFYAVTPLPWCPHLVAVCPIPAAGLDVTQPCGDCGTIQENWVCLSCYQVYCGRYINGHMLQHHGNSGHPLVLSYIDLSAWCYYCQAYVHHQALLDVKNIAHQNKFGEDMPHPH
Numeric only. Scale: nM

input: Return reported IC50; argument: "O=C(CS)NCCCCCCn1ccc2cc(Cl)c(Cl)cc21"
output: 63.9

input: Please look up its IC50: "O=C(CS)NCCCCCCn1cc(Cl)c2cc(Cl)c(Cl)cc21"
output: 241

input: Reported IC50 for "CC(C)c1cn(CCCCCCNC(=O)CS)c2cc(Cl)c(Cl)cc12" : what is it?
output: 1570

Value source: ChEMBL document CHEMBL3997851
